Values were extracted from the supplement of paper PMC11061612.

Measured combination Emax of individual entries
Test system: HT-29 (Colorectal Carcinoma)
Assay Method Text: combination Emax (second highest fraction inhibited in the dose matrix, 72 h); higher = more inhibition; extreme values may be limits of the assay
Readout Kind: combination Emax

Compound: Cc1c2c(nn1C)CSCc1cc(n(C)n1)CSc1cc(c3ccccc3c1)OCCCc1c(C(=O)O)n(C)c3c-2c(Cl)ccc13 [AZD5991] + CS(=O)(=O)CCNCc1ccc(-c2ccc3ncnc(Nc4ccc(OCc5cccc(F)c5)c(Cl)c4)c3c2)o1 [Lapatinib] (first compound max 1 µM, 7x7, partner max 10 µM)
Val: 0.783
--
Compound: CC1(C)CCC(CN2CCN(c3ccc(C(=O)NS(=O)(=O)c4ccc(NCC5CCOCC5)c([N+](=O)[O-])c4)c(Oc4cnc5[nH]ccc5c4)c3)CC2)=C(c2ccc(Cl)cc2)C1 [Venetoclax] + COc1cc(Nc2ncc3c(n2)-c2ccc(Cl)cc2C(c2c(F)cccc2OC)=NC3)ccc1C(=O)O [Alisertib] (first compound max 1 µM, 7x7, partner max 10 µM)
Val: 0.418
--
Compound: COc1cccc(OCCCN)c1-c1cc(Nc2cnc(C#N)cn2)n[nH]1 [Prexasertib] + C=CCn1c(=O)c2cnc(Nc3ccc(N4CCN(C)CC4)cc3)nc2n1-c1cccc(C(C)(C)O)n1 [AZD1775] (first compound max 1 µM, partner max 1 µM)
Val: 0.844

* * *

Tested on: JiyoyeP-2003 (Burkitt's Lymphoma)
Assay Method Text: combination Emax (second highest fraction inhibited in the dose matrix, 72 h); higher = more inhibition; extreme values may be limits of the assay
combination Emax of 0.7 or higher: criterion met. Under 0.7: criterion not met.

Molecule: CCN(CCO)CCCOc1ccc2c(Nc3cc(CC(=O)Nc4cccc(F)c4)[nH]n3)ncnc2c1 [AZD2811] + C=CCn1c(=O)c2cnc(Nc3ccc(N4CCN(C)CC4)cc3)nc2n1-c1cccc(C(C)(C)O)n1 [AZD1775] (first compound max 1 µM, partner max 1 µM)
Assigned Class: criterion met
--
Molecule: Cc1cc2ncnn2cc1Nc1ncc2c(n1)n(C1CCOCC1)c(=O)n2C [AZD7648] + O=C(c1cc(Cc2n[nH]c(=O)c3ccccc23)ccc1F)N1CCN(C(=O)C2CC2)CC1 [Olaparib] (first compound max 10 µM, 7x7, partner max 10 µM)
Assigned Class: criterion not met
--
Molecule: CN(C)CCCOc1ccc(-c2ccc3ncc4c(c3c2)n(C2CCOCC2)c(=O)n4C)cn1 [AZD0156] + C=CCn1c(=O)c2cnc(Nc3ccc(N4CCN(C)CC4)cc3)nc2n1-c1cccc(C(C)(C)O)n1 [AZD1775] (first compound max 1 µM, partner max 1 µM)
Assigned Class: criterion met
--
Molecule: COc1nnc2ccc(N3CCC(c4ccc(OCCN5CCN(C)C(=O)[C@H]5C)cc4)CC3)nn12 [AZD5153] + CC1(C)CCC(CN2CCN(c3ccc(C(=O)NS(=O)(=O)c4ccc(NCC5CCOCC5)c([N+](=O)[O-])c4)c(Oc4cnc5[nH]ccc5c4)c3)CC2)=C(c2ccc(Cl)cc2)C1 [Venetoclax] (first compound max 1 µM, 7x7, partner max 1 µM)
Assigned Class: criterion met
--
Molecule: COc1cccc2c1C(=O)c1c(O)c3c(c(O)c1C2=O)C[C@@](O)(C(=O)CO)C[C@@H]3O[C@H]1C[C@H](N)[C@H](O)[C@H](C)O1 [Doxorubicin] + Cc1cc2ncnn2cc1Nc1ncc2c(n1)n(C1CCOCC1)c(=O)n2C [AZD7648] (first compound max 1 µM, 7x7, partner max 10 µM)
Assigned Class: criterion met
